protein stability index overview
B1: HSP90AB1 (parent)
chain: QVANSAFVERVRKRGFEVVYMTEP

# Variants of: B1
# PROTOCOL_DESCRIPTION: protein stability index of a GFP-peptide fusion (GPS, HEK-293T) (PSI 1-6); higher = more stable;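 also: lentivirally expressed fusions sorted by FACS into six bins by GFP to DsRed ratio, PSI derived from sequencing read proportions per bin multiplied by bin number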
# TEST_SETTINGS: c terminus: a fixed tail appended
Answer field: number only, no words.

Please review the entries below; each comes with its answer.
> print(dat)
   variant.identifier  numeric.result
1                P24W            2.09
2                E17H            1.76
3                 V8K            2.54
4                E23C            2.67

Entry V2F : reported protein stability index = ?
2.47

I have this variant here, M21C , and I need its recorded protein stability index.
2.41

What does the record list as protein stability index for K13S ?
2.83

Which protein stability index is reported for this variant? Q1I
1.7
